system under test: Dual specificity protein kinase CLK2 (Homo sapiens, UniProt P49760)
Sequence (P49760 whole entry): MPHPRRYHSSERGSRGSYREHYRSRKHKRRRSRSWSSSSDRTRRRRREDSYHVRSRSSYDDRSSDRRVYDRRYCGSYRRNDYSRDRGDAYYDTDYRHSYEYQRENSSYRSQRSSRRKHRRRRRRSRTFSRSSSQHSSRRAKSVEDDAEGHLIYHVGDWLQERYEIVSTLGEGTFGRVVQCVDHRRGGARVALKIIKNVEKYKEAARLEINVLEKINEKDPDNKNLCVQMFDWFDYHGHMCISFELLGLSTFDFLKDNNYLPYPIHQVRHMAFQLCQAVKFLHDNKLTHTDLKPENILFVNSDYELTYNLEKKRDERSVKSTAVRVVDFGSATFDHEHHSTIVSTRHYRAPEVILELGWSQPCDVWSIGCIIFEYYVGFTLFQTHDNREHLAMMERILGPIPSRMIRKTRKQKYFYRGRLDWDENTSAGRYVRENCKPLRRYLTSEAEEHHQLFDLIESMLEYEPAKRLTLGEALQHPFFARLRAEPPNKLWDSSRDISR
experiment: Binding affinity to CLK2 (unknown origin) assessed as dissociation constant by competitive binding assay
Assignment: determine reported pKd for the given compounds.
// returns pKd (minus log10 of molar concentration), number only

Inquiry: Output pKd of `Cc1n[nH]c2ncc(-c3nnc4n3[C@H](c3ccc(Cl)cc3)CC4)cc12`
Reply text: 7.09

Inquiry: Fill in pKd for record `Cc1n[nH]c2ccc(-c3nnc4n3[C@H](c3ccc(Cl)cc3)CC4)nc12`
Reply text: 7.19

---

experiment: Bioavailability in Sprague-Dawley rat at 5 mg/kg, po or 1 mg/kg, iv administered as single dose and measured for 24 hrs by LC-MS/MS analysis
Format: ADME, organism-based
particulars: in vivo
metric: bioavailability
Please give the number followed by its unit.

Inquiry: Give recorded bioavailability. `Cc1n[nH]c2ccc(-c3nnc(C)n3Cc3ccc(C(F)(F)F)cc3)cc12`
Reply text: 97.7%
